// data source = PubChem BioAssay (NCI)

# measurement-description: NCI Yeast Anticancer Drug Screen. Data for the mlh1 rad18 strain (AID 175)
# cond: S. cerevisiae mlh1 rad18 strain growth inhibition; at 5.0 µM (retest, dose inferred, filed as 0.5); hits give high values
About 79,000 compounds went through this panel and 15% of them were active in at least one assay; those are over-represented in the sample as a whole.
endpoint-label: growth inhibition (%)
The reply should be a number in %, with the unit left off.

Some solved entries appear below for comparison.
{"compound": "COc1ccc(S)cc1", "units-of-measure": "%", "recorded-measurement": 2}
{"compound": "C=CCNC(=S)N/N=C(\\CCC)c1ccccn1", "units-of-measure": "%", "recorded-measurement": 99}
{"compound": "COc1cccc2c1C(=O)c1c(O)c3c(c(O)c1C2=O)C[C@@](O)(/C(C)=N/NS(C)(=O)=O)C[C@@H]3OC1CC(N)C(O)C(C)O1 (some centres undefined)", "units-of-measure": "%", "recorded-measurement": 14}
{"compound": "CC(CCCN(C)Cc1ccccc1)Nc1ccnc2cc(Cl)ccc12 (centres undefined)", "units-of-measure": "%", "recorded-measurement": 99}
{"compound": "Oc1ccc(COCCBr)c2cccnc12", "units-of-measure": "%", "recorded-measurement": 30}

Query: growth inhibition; subject: CCN(CC)C(=O)CCCCC(=O)OC(C)C
-1

====

# measurement-description: NCI Yeast Anticancer Drug Screen. Data for the cln2 rad14 strain (AID 165);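 also: 0% = growth equal to vehicle treated cultures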
# cond: S. cerevisiae cln2 rad14 strain, at 50.0 µM, hits give high values
# Experimental: Growth inhibition of yeast strains with defined genetic alterations is measured as a screen for potential anti-cancer activity. Selected strains with alterations in DNA damage repair or cell cycle control were exposed to compounds and growth inhibition was measured relative to vehicle treated controls. The strain used in this assay is cln2 rad14
This is part of a sample that, as a whole, favours compounds with a hit. Of some 79,000 tested, about 15% had one in any assay.
Given measured growth inhibition, output T if it is greater than or equal to 80% and F if not.

Answered examples (5):
{"compound": "CCSC(=O)/C=C1\\CN(C(=O)OC(C)(C)C)C1C(=O)OC(C)(C)C (configuration not stated)", "classification": "F"}
{"compound": "ClC(Cl)(Cl)C1=CC2c3ccccc3C1c1ccccc12", "classification": "F"}
{"compound": "Oc1c(Br)ccc2c(O)c(Br)ccc12", "classification": "T"}
{"compound": "CC[C@@]1(O)C[C@H](OC2CC(N(C)C)C(OC3CC(O)C(OC4CCC(=O)C(C)O4)C(C)O3)C(C)O2)c2c(cc3c(c2O)C(=O)c2c(O)cccc2C3=O)[C@H]1C(=O)OC (some centres not stated)", "classification": "T"}
{"compound": "C=CCc1cc([N+](=O)[O-])ccc1O", "classification": "T"}

Is reported growth inhibition greater than or equal to 80% here: COc1cc(/C=C2\Sc3scc(-c4cccc([N+](=O)[O-])c4)[n+]3C2=O)cc(OC)c1OC
T

Is reported growth inhibition greater than or equal to 80% here: CCN(CC)C(=O)CCCCC(=O)OC(C)C
T

====

# measurement-description: NCI Yeast Anticancer Drug Screen. Data for the bub3 strain (AID 167)
# cond: S. cerevisiae bub3 mutant strain, at 50.0 µM, hits give high values
The panel holds about 79,000 compounds, 15% with a hit somewhere; the sample as a whole holds those more often.
endpoint-label: growth inhibition (%)
The reply should be a number in %, with the unit left off.

Some solved entries appear below for comparison.
{"molecular-string": "Cc1cc2nc3[nH]c4c(Cl)cc(Cl)cc4c3nc2cc1C", "growth inhibition / %": -70.8}
{"molecular-string": "O=S(=O)(N=S(c1ccc(Cl)cc1)c1ccc(Cl)cc1)c1ccccc1", "growth inhibition / %": 27.2}
{"molecular-string": "O=c1c2ccccc2sc2c([N+](=O)[O-])ccc(NCCNCCO)c12", "growth inhibition / %": 88.5}
{"molecular-string": "O=C1/C(=C\\c2ccccc2)CN(C(=O)CCN2CCCCC2)C/C1=C/c1ccccc1", "growth inhibition / %": 90.8}
{"molecular-string": "Cc1cccc2c(CC(=O)O)cccc12", "growth inhibition / %": 75}

Query: growth inhibition; subject: COc1ccc(C(C)=O)c(OC(=O)c2ccccc2)c1OC(=O)c1ccccc1
1.15

Query: growth inhibition; subject: CCCCCCCCCCCC[S+](C)C
90.2

====

# measurement-description: NCI Yeast Anticancer Drug Screen. Data for the mlh1 rad18 strain (AID 175)
# cond: S. cerevisiae mlh1 rad18 strain growth inhibition; at 5.0 µM (retest, dose inferred, filed as 0.5)
About 79,000 compounds went through this panel and 15% of them were active in at least one assay; those are over-represented in the sample as a whole. Activity calls are given as the source filed them. No stated cut-off is given here; in the data, active means growth inhibition above about 70%; inactive means the rest.
Select the correct class. Options are True = active, False = inactive and nothing else.

{"molecule": "CCCCC(=O)N/N=C(\\C)[C@]1(O)Cc2c(O)c3c(c(O)c2[C@@H](OC2CC(N)C(O)C(C)O2)C1)C(=O)c1c(OC)cccc1C3=O (some centres undefined)", "classification": "False"}
{"molecule": "Cc1cc(O)c(/C=N/c2nc(-c3cccc([N+](=O)[O-])c3)cs2)c(=O)o1", "classification": "False"}
{"molecule": "Cc1ccc(O)c(C(C)(C)c2ccccc2)c1", "classification": "False"}
{"molecule": "CCOP(=O)(OCC)C(NC(=O)OCC(Cl)(Cl)Cl)n1nnc(C(=O)OC)c1C(=O)OC (centres undefined)", "classification": "False"}
{"molecule": "O=C(CC(O)(C(F)(F)F)C(F)(F)Cl)CC(O)(C(F)(F)F)C(F)(F)Cl (centres undefined)", "classification": "True"}
{"molecule": "O=C(/C=C(\\OB(F)F)c1ccccc1)c1ccccc1", "classification": "False"}
{"molecule": "N#C/C(=C\\c1cc(Cl)cc(Cl)c1O)C(/C(C#N)=C/c1cc(Cl)cc(Cl)c1O)c1ccc2c(c1)OCO2 (centres undefined)", "classification": "True"}
{"molecule": "CC(C)OP(=O)(OC(C)C)/C(I)=N/Nc1ccc([N+](=O)[O-])cc1", "classification": "False"}

Please find the next molecule below.
Fill in: this test's call for O=C(O)/C(=C\c1ccc(O)cc1)c1cccc2ccccc12 is ___
False

====

Consider the following compounds and their measured growth inhibition readings.
# measurement-description: NCI Yeast Anticancer Drug Screen. Data for the cln2 rad14 strain (AID 165);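 also: 0% = growth equal to vehicle treated cultures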
# cond: S. cerevisiae cln2 rad14 strain, at 50.0 µM (retest, dose inferred, filed as 5.0), hits give high values
The panel holds about 79,000 compounds, 15% with a hit somewhere; the sample as a whole holds those more often.
The reply should be a number in %, with the unit left off.

Some solved entries appear below for comparison.
{"molecular-string": "NC(=S)N/N=C\\C12CC3CC(CC(C3)C1)C2", "recorded-measurement": 97}
{"molecular-string": "c1ccc(N2CCN(c3ccccc3)C2Cc2c[nH]c3ccccc23)cc1", "recorded-measurement": 99}
{"molecular-string": "Cc1c2ccccc2c(C)c2c1cc(F)c1ccccc12", "recorded-measurement": 91}
{"molecular-string": "Cc1ccc(C(=O)C(CN(C)C)CN(C)C)cc1C", "recorded-measurement": 51}

Kindly consider the entry below.
Query: growth inhibition; subject: O=C(C#CC(=O)[O][Sn]([c]1ccccc1)([c]1ccccc1)[c]1ccccc1)[O][Sn]([c]1ccccc1)([c]1ccccc1)[c]1ccccc1
99

====

# measurement-description: NCI Yeast Anticancer Drug Screen. Data for the sgs1 mgt1 strain (AID 161);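 also: 0% = growth of cultures given vehicle only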
# cond: S. cerevisiae sgs1 mgt1 strain, at 5.0 µM (retest, dose inferred, filed as 0.5)
The panel holds about 79,000 compounds, 15% with a hit somewhere; the sample as a whole holds those more often. The source made the active and inactive calls. Cut-off read from the data, not from the text of the source: active = growth inhibition above about 70%; inactive = the rest.
Select the correct class. Options are active, inactive and nothing else.

Answered examples (5):
{"compound": "O=C1CN(CCN2CCOCC2)CC(=O)N2Cc3ccccc3CN12", "classification": "inactive"}
{"compound": "COc1cccc(C(c2cc3c(cc2O)OCO3)N2CCCC2)c1O (stereo not drawn)", "classification": "inactive"}
{"compound": "O=C(O)CCCCCCCCC(=O)CCl", "classification": "inactive"}
{"compound": "O=c1cccccc1[O-].O=c1cccccc1[O-].O=c1cccccc1[O-].[Dy+3]", "classification": "inactive"}
{"compound": "S=c1c2ccccc2[nH]c2ccccc12", "classification": "inactive"}

Fill in: this test's call for CCOP(=O)(OCC)/C(C#N)=C/c1ccc(Oc2ccccc2)cc1 is ___
inactive

Fill in: this test's call for NC1=NCN(C2OC(COCc3ccccc3)C(OCc3ccccc3)C2OCc2ccccc2)C(=O)N1 (stereo not drawn) is ___
inactive

====

# measurement-description: NCI Yeast Anticancer Drug Screen. Data for the mec2-1 strain (AID 157)
# cond: S. cerevisiae mec2-1 strain, at 50.0 µM (retest, dose inferred, filed as 5.0)
This is part of a sample that, as a whole, favours compounds with a hit. Of some 79,000 tested, about 15% had one in any assay. Activity calls are given as the source filed them. No stated cut-off is given here; in the data, active means growth inhibition above about 70%; inactive means the rest.
Select the correct class. Options are active, inactive and nothing else.

Answered examples (10):
{"compound": "O=C(O)/C(=C\\c1ccc(O)cc1)c1cccc2ccccc12", "classification": "inactive"}
{"compound": "Cc1c2cc[n+](C)cc2c(COC2OC(CO)C(O)C2O)c2c3ccccc3n(C)c12 (configuration not stated)", "classification": "inactive"}
{"compound": "Nc1nc(N)c(N=O)c(Nc2cccc(Br)c2)n1", "classification": "active"}
{"compound": "Nc1c(/C=C/c2cc3ccc(C4=NCCN4)cc3[nH]2)[nH]c2cc(C3=NCCN3)ccc12", "classification": "active"}
{"compound": "COc1ccc2c(c1)O[C@H]1c3ccc(O)cc3OC[C@@H]21", "classification": "inactive"}
{"compound": "CCCCCCCCCCCC(=O)c1c(O)c2ccccc2oc1=O", "classification": "inactive"}
{"compound": "CN(C)CCOC(=O)c1ccccc1", "classification": "inactive"}
{"compound": "O=C1C=CC(=O)N1c1ccc(-c2ccc(N3C(=O)C=CC3=O)cc2)cc1", "classification": "active"}
{"compound": "O=C1CCSC(=S)N1c1ccc(Br)c(Cl)c1", "classification": "active"}
{"compound": "O=C1OC(C2OC(=O)C(=O)C2C(=O)c2ccc([N+](=O)[O-])cc2)C(C(=O)c2ccc([N+](=O)[O-])cc2)C1=O (configuration not stated)", "classification": "inactive"}

Fill in: this test's call for CCCCCCCCCCCCCC(=O)CBr is ___
active

Fill in: this test's call for C=CS(=O)(=O)c1ccc([N+](=O)[O-])cc1 is ___
active
